target: Tryptophan synthase alpha /beta chains (Escherichia coli K-12, UniProt P0A877+P0A879); experiment: Binding affinity to tryptophan synthase alpha2/beta2 complex in Escherichia coli K-12 by equlibrium dialysis method
Sequence (P0A879 whole entry): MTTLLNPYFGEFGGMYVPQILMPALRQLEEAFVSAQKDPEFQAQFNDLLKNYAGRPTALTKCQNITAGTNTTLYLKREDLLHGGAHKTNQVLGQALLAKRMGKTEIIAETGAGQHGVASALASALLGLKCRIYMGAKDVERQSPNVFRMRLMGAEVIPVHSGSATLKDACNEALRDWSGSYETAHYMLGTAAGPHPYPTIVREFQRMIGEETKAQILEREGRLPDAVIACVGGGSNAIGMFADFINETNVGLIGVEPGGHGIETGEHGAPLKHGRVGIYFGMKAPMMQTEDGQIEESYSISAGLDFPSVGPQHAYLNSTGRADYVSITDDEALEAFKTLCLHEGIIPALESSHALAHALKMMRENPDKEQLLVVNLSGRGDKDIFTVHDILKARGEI
Sequence (P0A877 whole entry): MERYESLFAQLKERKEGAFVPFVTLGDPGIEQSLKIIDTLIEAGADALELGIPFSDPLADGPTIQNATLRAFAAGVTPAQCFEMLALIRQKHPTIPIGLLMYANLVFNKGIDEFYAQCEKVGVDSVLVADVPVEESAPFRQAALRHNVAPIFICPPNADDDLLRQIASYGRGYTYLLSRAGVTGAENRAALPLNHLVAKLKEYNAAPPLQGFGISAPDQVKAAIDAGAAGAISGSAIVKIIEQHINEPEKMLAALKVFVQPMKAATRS
reported-endpoint: pKi
# pKi: negative log10 of molar concentration; output just the value

Query: For the molecule O=P(O)(O)OCCCc1c[nH]c2ccccc12 , give its measured pKi value.
Response: 4.82

====

assay: Inhibition of Salmonella enterica subsp. enterica serovar Typhimurium tryptophan synthase alpha subunit; settings: read-out: I50
Exercise: for every item that follows, state its recorded log10(IC50).
// units: nM (pre-log); metric: IC50; scale: log10

Query: For the molecule O=P(O)(O)/C=C/CC[S+]([O-])c1ccccc1O (stereo not drawn) , give its measured log10(IC50) value.
Response: 2.64

Query: For the molecule O=P(O)(O)CCCc1c[nH]c2ccccc12 , give its measured log10(IC50) value.
Response: 4.10

Query: For the molecule Nc1ccccc1SCCCCP(=O)(O)O , give its measured log10(IC50) value.
Response: 2.60

Query: For the molecule O=P(O)(O)CCCCc1c[nH]c2ccccc12 , give its measured log10(IC50) value.
Response: 4.30

Query: For the molecule O=P(O)(O)/C=C/CCSc1ccccc1O , give its measured log10(IC50) value.
Response: 2.76

Query: For the molecule O=P(O)(O)OCCCc1c[nH]c2ccccc12 , give its measured log10(IC50) value.
Response: 3.70

Query: For the molecule O=P(O)(O)/C=C/CCS(=O)(=O)c1ccccc1O , give its measured log10(IC50) value.
Response: 2.56

Query: For the molecule O=P(O)(O)CCCCSc1ccccc1O , give its measured log10(IC50) value.
Response: 2.11

Each recorded value in this set is attributed to ChEMBL document CHEMBL3045570.
